# target entity: SARS-CoV-2 spike protein bearing furin mutation and truncation in retention sequence, on pseudoviral particles (SARS-CoV-2, UniProt P0DTC2 14-1255)
# assay comment: cell-based or functional assay
experimental readout: PV neutralization % (Ab 1 ug/mL) (%)
Numbers only, in %.

For every item in the list below, what is its measured PV neutralization % (Ab 1 ug/mL)?
1. YANG-1202 (antibody, V domains shown) VH: EMQLVESGGGLVQPGGSLRLSCAASGFTFSSFWMRWVRQAPGKGLEWVANIKQDGTEKYYVDSVKGRFTISRDNAKNSLYLQMNSLRAEDTAVYYCVRDRVGGDYYYYDMDVWGQGTTVTVSS VL: DIQMTQSPSSLSASVGDRVTITCRASQDISNYLAWFQQKPGKAPKSLIYAASSLQSGVPSKFSGSGSGTDFTLTISGLQPEDSATYYCQQYNSYPRTFGQGTKVEIK
2. YANG-1107 (antibody, V domains shown) VH: EVQMVESGGGLIQSGGSLRLSCAASGLSVSSNYMSWVRQAPGKGLEWVAVIYSGGSIFYADSVKDRFTISRDNSKNTLYLQMNSLRAEDTAVYYCARENWNYVFDCWGQGTLVTVSS VL: DIQLTQSPSFLSASVGDRVTITCWASQGISTYLAWYQQKPGKAPKLLIYAASTLQSGVPSRFSGSGSGTEFTLTISSLQPEDFATYYCQQLSSHPIIFGQGTRLEIK
3. YANG-1110 (antibody, V domains shown) VH: QVQLAESGGGVVQPGRSLRLSCVVSGFTFSNYGMHWVRQAPGKGLEWVVFISNDGSNEDFVDSVKGRFTISRDNSKNTLYLQMNSLRAEDTAVYYCAKGGYFYGSGNYYYYYGMDVWGQGTTVTVSS VL: QPVLTQSSSASASLGSSVKLTCTLSSVHSNHIIAWHQQQPGKAPRYLMKLEGSGRYSKGSGVPDRFSGSSSEADRYLTISNLQSEDEADYYCETWDNNTYVFGSGTKVTVL

Output line:
51.9
99.2
99.3
